Reported inhibition at 0.1 µM by item:
- targetSystem: CK2 (Homo sapiens (Human))
- assaySummary: Radiometric CK2 kinase assay
- Assay type: biochemical
- details: compound at 0.10 μM; ATP 10 μM

CC(C)C(=O)c1[nH]c2ccc(F)cc2c1-c1cn(CC2CCN(CCNS(=O)(=O)c3ccc(-c4cccnc4Cl)cc3)CC2)nn1 [AB1282]: 15%
CC(=O)c1[nH]c2ccc(F)cc2c1-c1cn(CC2CCN(CCNS(=O)(=O)c3ccc(-c4ccccc4F)cc3)CC2)nn1 [AB1390]: 36%
CC(C)Cc1ccc(S(=O)(=O)NCCN2CCC(Cn3cc(-c4c(C(=O)N5CCOCC5)[nH]c5ccc(F)cc45)nn3)CC2)cc1 [AB1132]: 4%

Given item CC(=O)c1[nH]c2ccc(F)cc2c1-c1cn(CC2CCN(CCNS(=O)(=O)c3ccc(-c4c(C)cccc4C#N)cc3)CC2)nn1 [AB1452] , the value recorded as its inhibition at 0.1 µM is 36%

Given item CC(=O)c1[nH]c2ccc(F)cc2c1-c1cn(CC2CCN(CCNS(=O)(=O)c3ccc(-c4ccc(F)cc4Cl)cc3)CC2)nn1 [AB1453] , the value recorded as its inhibition at 0.1 µM is 40%

Given item CC(C)Cc1ccc(S(=O)(=O)NCCN2CCC(Cn3cc(-c4c(C(=O)c5cccnc5)[nH]c5ccc(F)cc45)nn3)CC2)cc1 [AB1301] , the value recorded as its inhibition at 0.1 µM is 3%

Given item CC(C)CC(=O)c1[nH]c2ccc(F)cc2c1-c1cn(CC2CCN(CCNS(=O)(=O)c3ccc(-c4cccnc4Cl)cc3)CC2)nn1 [AB1284] , the value recorded as its inhibition at 0.1 µM is 15%

###

- targetSystem: CK2 (Homo sapiens (Human), UniProt P68400)
- Sequence (P68400 whole entry): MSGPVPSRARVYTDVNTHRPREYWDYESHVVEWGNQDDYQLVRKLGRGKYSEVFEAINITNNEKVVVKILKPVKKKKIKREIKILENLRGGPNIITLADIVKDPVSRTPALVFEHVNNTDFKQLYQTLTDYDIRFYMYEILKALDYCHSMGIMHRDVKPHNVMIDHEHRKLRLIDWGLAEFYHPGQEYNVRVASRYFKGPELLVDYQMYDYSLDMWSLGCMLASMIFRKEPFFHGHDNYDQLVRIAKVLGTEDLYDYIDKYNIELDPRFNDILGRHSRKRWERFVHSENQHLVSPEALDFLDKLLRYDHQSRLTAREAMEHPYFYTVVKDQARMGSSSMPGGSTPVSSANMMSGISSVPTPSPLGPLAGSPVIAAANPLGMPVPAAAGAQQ
- assaySummary: Radiometric CK2 kinase assay
- Format: biochemical
assayMetric: pIC50
Entry type: numeric. Quantity: pIC50, the -log10 of concentration in molar units.

// solved cases for pIC50 follow
CCOC(=O)c1[nH]c2ccc(F)cc2c1-c1cn(CC2CCN(CCNS(=O)(=O)c3ccc(C(F)(F)F)cc3)CC2)nn1: 6.15
Cc1noc(C)c1-c1ccc(S(=O)(=O)NCCN2CCC(Cn3cc(-c4c(C(=O)OCC(C)C)[nH]c5ccc(F)cc45)nn3)CC2)cc1: 7.31

Consider the record given below.
Given item CC(C)COC(=O)c1[nH]c2ccc(F)cc2c1-c1cn(CC2CCN(CCNS(=O)(=O)c3ccc(-c4cccnc4N4CCCC4)cc3)CC2)nn1 , the value recorded as its pIC50 is 7.74

###

- targetSystem: UniProt P68400
- assaySummary: Radiometric CK2 kinase assay
- Format: biochemical
- details: compound at 1 μM; ATP 10 μM
assayMetric: inhibition at 1 µM (%)
Expressed in %, but write only the number.

// solved cases for inhibition at 1 µM follow
COc1ccccc1-c1ccc(CN2CCC(Cn3cc(-c4c(C(=O)OCC(C)C)[nH]c5ccc(F)cc45)nn3)CC2)cc1Cl: 6
CC(C)COC(=O)c1[nH]c2ccc(F)cc2c1-c1cn(CC2CCN(Cc3ccc(OCC(C)C)c(Cl)c3)CC2)nn1: 15
CC(C)CCNC(=O)c1[nH]c2ccc(F)cc2c1-c1cn(CC2CCN(CCNS(=O)(=O)c3ccc(C(C)C)cc3)CC2)nn1: 18
CC(C)CCOC(=O)c1[nH]c2ccc(F)cc2c1-c1cn(CC2CCN(CCNS(=O)(=O)c3ccc(C(C)C)cc3)CC2)nn1: 15
CC(C)COC(=O)c1[nH]c2ccc(F)cc2c1-c1cn(CC2CCN(CCNS(=O)(=O)c3ccc4c(c3)CCO4)CC2)nn1: 45

Given item CC(C)COC(=O)c1[nH]c2ccc(F)cc2c1-c1cn(CC2CCN(Cc3ccc(Oc4ccccc4)c(Cl)c3)CC2)nn1 , the value recorded as its inhibition at 1 µM is 3

Given item COCc1ccccc1-c1ccc(C(=O)N2CCC(Cn3cc(-c4c(C(=O)OCC(C)C)[nH]c5ccc(F)cc45)nn3)CC2)cc1Cl , the value recorded as its inhibition at 1 µM is 18

Given item CC(C)COC(=O)c1[nH]c2ccc(F)cc2c1-c1cn(CC2CCN(S(=O)(=O)c3ccc4c(c3)OCC4)CC2)nn1 , the value recorded as its inhibition at 1 µM is 4

Given item CC(C)CCOc1ccc(CN2CCC(Cn3cc(-c4c(C(=O)OCC(C)C)[nH]c5ccc(F)cc45)nn3)CC2)cc1Cl , the value recorded as its inhibition at 1 µM is 15

Given item CCc1ccc(S(=O)(=O)NCCN2CCC(Cn3cc(-c4c(C(=O)NCCC(C)C)[nH]c5ccc(F)cc45)nn3)CC2)cc1 , the value recorded as its inhibition at 1 µM is 14

Given item CC(C)CCOc1ccccc1-c1ccc(C(=O)N2CCC(Cn3cc(-c4c(C(=O)OCC(C)C)[nH]c5ccc(F)cc45)nn3)CC2)cc1Cl , the value recorded as its inhibition at 1 µM is 9

Given item CC(C)COC(=O)c1[nH]c2ccc(F)cc2c1-c1cn(CC2CCN(Cc3ccc(Oc4ccc5c(c4)CCO5)c(C(C)C)c3)CC2)nn1 , the value recorded as its inhibition at 1 µM is 2

Given item CC(C)COC(=O)c1[nH]c2ccc(F)cc2c1-c1cn(CC2CCN(Cc3ccc(-c4cccc5[nH]ccc45)c(C(C)C)c3)CC2)nn1 , the value recorded as its inhibition at 1 µM is 8

Given item CCc1ccc(S(=O)(=O)NCCN2CCC(Cn3cc(-c4c(C(=O)NCC(C)C)[nH]c5ccc(F)cc45)nn3)CC2)cc1 , the value recorded as its inhibition at 1 µM is 5

###

- targetSystem: CK2 (Homo sapiens (Human), UniProt P68400)
- assaySummary: Radiometric CK2 kinase assay
- Assay type: biochemical
- details: inhibition of CK2 activity; ATP 10 μM
Labelling field: enter Y if recorded IC50 is less than 0.09 µM. Enter N if it equals or exceeds that cut-off.

Cc1ccc(CS(=O)(=O)NCCN2CCC(Cn3cc(-c4c(C(=O)OCC(C)C)[nH]c5ccc(F)cc45)nn3)CC2)cc1: Y
CC(C)COC(=O)c1[nH]c2ccc(F)cc2c1-c1cn(CC2CCN(CCNS(=O)(=O)Cc3cccc(Br)c3)CC2)nn1: N
CC(C)COC(=O)c1[nH]c2ccc(F)cc2c1-c1cn(CC2CCN(CCNS(=O)(=O)N3CCC(c4ccccc4)CC3)CC2)nn1: Y
O=C(c1[nH]c2ccc(F)cc2c1-c1cn(CC2CCN(CCNS(=O)(=O)Cc3ccc(C(F)(F)F)cc3)CC2)nn1)C1CC1: N
O=C(c1[nH]c2ccc(F)cc2c1-c1cn(CC2CCN(CCNS(=O)(=O)N3CCC(c4c(F)cccc4F)CC3)CC2)nn1)C1CC1: N
CC(C)COC(=O)c1[nH]c2ccc(F)cc2c1-c1cn(CC2CCN(CCNS(=O)(=O)c3ccc(-c4c(O)cccc4F)cc3)CC2)nn1: Y

Decide: IC50 of CC(C)COC(=O)c1[nH]c2ccc(F)cc2c1-c1cn(CC2CCN(CCNS(=O)(=O)N3CCC(Cc4ccccc4)CC3)CC2)nn1 strictly below 0.09 µM?
N

###

Reported pIC50 by item:
- targetSystem: CK2 (Homo sapiens (Human), UniProt P68400)
- assaySummary: Radiometric CK2 kinase assay
- Assay type: biochemical
Entry type: numeric. Quantity: pIC50, the -log10 of concentration in molar units.

CC(=O)c1[nH]c2ccc(F)cc2c1-c1cn(CC2CCN(CCNS(=O)(=O)c3ccc(-c4ccccc4C(F)(F)F)cc3)CC2)nn1: 7.64
CCOC(=O)c1[nH]c2ccc(Cl)cc2c1-c1cn(CC2CCN(CCNS(=O)(=O)c3ccc(C(F)(F)F)cc3)CC2)nn1: 5.65
CC(C)COC(=O)c1[nH]c2ccc(F)cc2c1-c1cn(CC2CCN(CCNS(=O)(=O)c3ccc(-c4cn[nH]c4)cc3)CC2)nn1: 6.70
CCCCC(=O)c1[nH]c2ccc(F)cc2c1-c1cn(CC2CCN(CCNS(=O)(=O)c3ccc(CC(C)C)cc3)CC2)nn1: 6.89
CCOC(=O)c1[nH]c2ccc(Cl)cc2c1-c1cn(CC2CCN(CCNS(=O)(=O)c3ccc(Cl)cc3)CC2)nn1: 5.60

The compound CCOC(=O)c1[nH]c2cc(Cl)ccc2c1-c1cn(CC2CCN(CCNS(=O)(=O)c3ccc(Cl)cc3)CC2)nn1 on CK2 (Homo sapiens (Human), UniProt P68400): pIC50 was 5.09

The compound O=S(=O)(NCCN1CCC(Cn2cc(-c3c[nH]c4ccccc34)nn2)CC1)c1ccc(Cl)cc1 on CK2 (Homo sapiens (Human), UniProt P68400): pIC50 was 4.46

###

- targetSystem: CK2 (Homo sapiens (Human), UniProt P68400)
- assaySummary: Radiometric CK2 kinase assay
- Type: biochemical
- details: compound at 0.10 μM; ATP 10 μM
assayMetric: inhibition at 0.1 µM (%)
Expressed in %, but write only the number.

// solved cases for inhibition at 0.1 µM follow
CC(C)Cc1ccc(S(=O)(=O)NCCN2CCC(Cn3cc(-c4c(CO)[nH]c5ccc(F)cc45)nn3)CC2)cc1: 11
CC(=O)c1[nH]c2ccc(F)cc2c1-c1cn(CC2CCN(CCNS(=O)(=O)c3ccc(-c4c(C#N)cccc4C(F)(F)F)cc3)CC2)nn1: 31
O=S(=O)(NCCN1CCC(Cn2cc(-c3c(CO)[nH]c4ccc(F)cc34)nn2)CC1)c1ccc(-c2c(O)cccc2F)cc1: 29
CC(=O)c1[nH]c2ccc(F)cc2c1-c1cn(CC2CCN(CCNS(=O)(=O)N3CCC(c4cccnc4F)CC3)CC2)nn1: 10

Given item CC(=O)c1[nH]c2ccc(F)cc2c1-c1cn(C[C@@H]2CCN(CCNS(=O)(=O)c3ccc(CC(C)C)cc3)C2)nn1 , the value recorded as its inhibition at 0.1 µM is 33

Given item CC(=O)c1[nH]c2ccc(F)cc2c1-c1cn(C2CCN(CCNS(=O)(=O)c3ccc(CC(C)C)cc3)CC2)nn1 , the value recorded as its inhibition at 0.1 µM is 4

Given item CC(=O)c1[nH]c2ccc(F)cc2c1-c1cn(CC2CN(CCNS(=O)(=O)c3ccc(CC(C)C)cc3)C2)nn1 , the value recorded as its inhibition at 0.1 µM is 20
